target: PfRKIP (Plasmodium falciparum, UniProt Q7KQK1, S96A); settings: read-out: K1; phosphate buffer pH 7.6, 25 °C; stronger site of two-site fit
Measured property: pKd
Keep in mind that pKd stands for -log10 of concentration in molar terms.

pKd in this record for CCCCCCCCCCCCCCCC(=O)OC[C@H](COP(=O)(O)O[C@@H]1[C@H](O)[C@H](OP(=O)(O)O)[C@@H](O)[C@H](O)[C@H]1O)OC(=O)CCCCCCCCCCCCCCC : 4.81

----------
target: PfRKIP (Plasmodium falciparum, UniProt Q7KQK1, P80L); settings: read-out: K1; phosphate buffer pH 7.6, 25 °C; stronger site of two-site fit
Measured property: Kd (µM)
Report as a plain number; the unit µM is understood.

Kd in this record for CCCCCCCCCCCCCCCC(=O)OC[C@H](COP(=O)(O)O[C@@H]1[C@H](O)[C@H](OP(=O)(O)O)[C@@H](O)[C@H](O)[C@H]1O)OC(=O)CCCCCCCCCCCCCCC : 109
